target: GLUT1 (Mus musculus); assay: 3H-2-deoxyglucose uptake inhibition in L929 cells; format: cell-based
Sequence (P17809 whole entry): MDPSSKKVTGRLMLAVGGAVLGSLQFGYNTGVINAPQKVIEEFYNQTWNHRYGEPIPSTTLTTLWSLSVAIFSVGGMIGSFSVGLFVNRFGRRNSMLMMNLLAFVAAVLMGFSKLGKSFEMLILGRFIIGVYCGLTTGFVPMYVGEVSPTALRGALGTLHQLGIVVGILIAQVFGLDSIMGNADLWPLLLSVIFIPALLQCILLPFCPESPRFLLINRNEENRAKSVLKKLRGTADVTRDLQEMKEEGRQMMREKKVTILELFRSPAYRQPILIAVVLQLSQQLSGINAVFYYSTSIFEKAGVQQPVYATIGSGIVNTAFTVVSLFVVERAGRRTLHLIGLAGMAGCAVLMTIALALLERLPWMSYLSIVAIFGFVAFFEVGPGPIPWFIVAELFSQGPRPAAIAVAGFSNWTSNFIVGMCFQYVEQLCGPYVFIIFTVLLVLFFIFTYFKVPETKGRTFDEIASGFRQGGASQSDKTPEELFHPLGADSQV
quantity.name: IC50 (nM)

molecule.smiles	result.unit	measurement
Cc1c(NC(=O)c2cc(C(N)=O)nc3cc(F)ccc23)c(C(F)(F)F)nn1Cc1ccc(C#N)cc1	nM	20

----------
biological target: UniProtKB P17809; assay: 3H-2-deoxyglucose uptake inhibition in L929 cells; format: cell-based
pIC50: −log10 of the molar value.

molecule.smiles	assay.target	pIC50
O=C(Oc1cccc(F)c1OC(=O)c1cccc(O)c1)c1cccc(O)c1	UniProtKB P17809	5.07
